Source of measurements: the supplement of paper PMC12042874

# test details: amyloid nucleation score (Sup35N fusion, yeast selection) (log enrichment); library NNK3; higher = more nucleation; inactive = no reads after selection;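 further: zero at mode of non-aggregating sequences after 7 days selection at 30°C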
endpoint label: amyloid nucleation score

{"substance": "FNDVLMAVITLSVIDTLMWT", "amyloid nucleation score": "inactive"}
{"substance": "HREPTNSNRMEIELRKSVWR", "amyloid nucleation score": "inactive"}
{"substance": "LCFWNGLTTIDYYSFMGLLS", "amyloid nucleation score": 0.409}
{"substance": "AILLNWNCVNFPCFEIYPYL", "amyloid nucleation score": 1.7}

Now consider a different substance.
q: Param item = ITKKRYNCRMFLIT ; retrieve measured amyloid nucleation score.
a: inactive
